B1: RAD51 (parent)
chain: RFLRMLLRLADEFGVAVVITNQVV

- Variants of: B1
- testName: protein stability index of a GFP-peptide fusion (GPS, HEK-293T) (PSI 1-6); higher = more stable;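 also: lentivirally expressed fusions sorted by FACS into six bins by GFP to DsRed ratio, PSI derived from sequencing read proportions per bin multiplied by bin number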
- runParameters: c terminus: a fixed tail appended
propertyName: protein stability index
Provide a numeric answer; units are not to be included.

Solved entries (count: 5):
In: // Input: V23Q . Output its protein stability index only.
Out: 1.98

In: // Input: V17N . Output its protein stability index only.
Out: 2.35

In: // Input: V24P . Output its protein stability index only.
Out: 2.06

In: // Input: F13D . Output its protein stability index only.
Out: 3.29

In: // Input: R1W . Output its protein stability index only.
Out: 3

Others:
In: // Input: L3T . Output its protein stability index only.
Out: 3.74

In: // Input: R1A . Output its protein stability index only.
Out: 1.62

In: // Input: R1L . Output its protein stability index only.
Out: 2.12

In: // Input: E12D . Output its protein stability index only.
Out: 2.48

In: // Input: R8H . Output its protein stability index only.
Out: 3.25

In: // Input: L6S . Output its protein stability index only.
Out: 3.28
